Biological target: CYP1B1 (Homo sapiens, UniProt Q16678)
Sequence (Q16678 whole entry): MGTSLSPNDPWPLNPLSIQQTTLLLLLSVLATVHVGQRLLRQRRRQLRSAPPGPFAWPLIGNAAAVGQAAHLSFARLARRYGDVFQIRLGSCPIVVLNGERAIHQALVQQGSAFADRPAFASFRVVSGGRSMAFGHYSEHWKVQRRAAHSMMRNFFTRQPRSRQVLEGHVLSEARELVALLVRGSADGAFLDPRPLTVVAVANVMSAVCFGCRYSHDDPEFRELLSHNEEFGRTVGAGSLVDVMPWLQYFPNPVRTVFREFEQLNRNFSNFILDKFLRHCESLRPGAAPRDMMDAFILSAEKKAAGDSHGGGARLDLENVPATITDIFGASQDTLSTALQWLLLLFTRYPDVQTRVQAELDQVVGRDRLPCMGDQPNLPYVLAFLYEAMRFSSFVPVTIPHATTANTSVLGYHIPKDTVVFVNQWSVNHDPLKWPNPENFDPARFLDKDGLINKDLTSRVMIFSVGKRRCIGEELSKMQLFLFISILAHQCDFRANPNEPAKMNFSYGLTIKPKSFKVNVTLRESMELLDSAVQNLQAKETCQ
Assay: CYP1B1 substrate prediction model (Gaussian Kernel weighted k-NN)
observation_type: % CYP1B1 substrate inhibition, accuracy (predicted versus actual) (%)

>>> recorded_number("COc1cc(OC)c2oc(COP(=O)(NCCBr)NCCBr)cc2c1")
96
>>> recorded_number("Nc1ccc(S(=O)(=O)Nc2ccnn2-c2ccccc2)cc1")
68
>>> recorded_number("COc1cc(/C=C/c2ccc(OC)cc2OC)cc(OC)c1")
98
>>> recorded_number("CCOc1ccc2nc3ccc(=O)cc-3oc2c1")
95
>>> recorded_number("C[C@]12CC[C@@H]3c4ccc(O)cc4CC[C@H]3[C@@H]1CC[C@@H]2O")
95
>>> recorded_number("COc1cc(OC)c2oc(COP(=O)(NCCCl)NCCCl)cc2c1")
96
>>> recorded_number("Cc1cc(=O)oc2cc(OCc3cc4cc(F)cc(F)c4o3)ccc12")
82
>>> recorded_number("C=C[C@H]1C[N@@]2CC[C@H]1C[C@@H]2[C@@H](O)c1ccnc2ccc(OC)cc12")
64
>>> recorded_number("COc1cc(OC)c2oc(COc3ccc4c(C)cc(=O)oc4c3)cc2c1")
96
>>> recorded_number("Oc1ccc(C=Cc2cc(O)cc(O)c2)cc1")
95

These entries and their values trace back to patent US9919060B2.
